# targetSystem: Subtilisin-like protease 1 (Plasmodium falciparum)
# Sequence (O61142 whole entry): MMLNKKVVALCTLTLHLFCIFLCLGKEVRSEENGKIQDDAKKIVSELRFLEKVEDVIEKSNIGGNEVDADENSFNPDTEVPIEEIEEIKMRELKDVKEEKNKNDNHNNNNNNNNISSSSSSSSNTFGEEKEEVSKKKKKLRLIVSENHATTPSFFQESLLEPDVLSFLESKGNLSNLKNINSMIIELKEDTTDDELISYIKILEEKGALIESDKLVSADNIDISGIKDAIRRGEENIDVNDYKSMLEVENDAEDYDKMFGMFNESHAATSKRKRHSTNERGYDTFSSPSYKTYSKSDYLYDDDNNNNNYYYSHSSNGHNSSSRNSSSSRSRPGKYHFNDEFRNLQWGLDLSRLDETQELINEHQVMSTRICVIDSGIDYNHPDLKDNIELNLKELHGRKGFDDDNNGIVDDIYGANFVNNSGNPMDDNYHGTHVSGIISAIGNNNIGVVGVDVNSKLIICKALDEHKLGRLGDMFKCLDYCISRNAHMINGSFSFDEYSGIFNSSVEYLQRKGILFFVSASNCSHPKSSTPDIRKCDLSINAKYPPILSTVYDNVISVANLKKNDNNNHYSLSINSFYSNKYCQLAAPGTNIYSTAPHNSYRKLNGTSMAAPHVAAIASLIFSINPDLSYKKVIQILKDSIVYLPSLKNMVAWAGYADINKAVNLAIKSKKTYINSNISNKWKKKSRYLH
# test: Inhibition of Plasmodium falciparum SUB1
pIC50: −log10 of the molar value. *1 amine or outer side, *2 acyl side, *3 side chain or, on linkers, in order; H or OH if unused. Where a SMILES comes first, the peptide text is derived from it. [ ]: non-standard residue; d: D form. The star is where a group is joined. X1 = NC(=O)CC[C@H](N[*:1])C(=O)C(=O)[*:2]; Pentanoyl(4-Me) = CC(C)CCC(=O)*
observable: pIC50

>>> reportedvalue("CC(=O)N[C@H](C(=O)N[C@H](C(=O)NCC(=O)N[C@@H](C)B(O)O)[C@@H](C)O)C1CCCC1")
5.03
>>> reportedvalue("CC[C@H](C)[C@H](NC(C)=O)C(=O)N[C@H](C(=O)NCC(=O)N[C@@H](C)B(O)O)[C@@H](C)O")
7.16
>>> reportedvalue("CC[C@H](C)[C@H](NC(=O)[C@H](CCCCN)NC(=O)CCC(C)C)C(=O)N[C@H](C(=O)N[C@@H](C)C(=O)N[C@@H](CCC(N)=O)C(=O)C(=O)N[C@@H](CC(=O)O)C(=O)N[C@@H](CC(=O)O)C(=O)N[C@@H](CCC(N)=O)C(=O)N[C@@H](CCC(N)=O)C(N)=O)[C@@H](C)O ({Pentanoyl(4-Me)}-KITA[X1]DDQQ-NH2)")
4.75
>>> reportedvalue("CC(=O)N[C@H](C(=O)N[C@H](C(=O)NCC(=O)N[C@@H](C)B(O)O)C(C)C)C1CCCC1")
5.24
>>> reportedvalue("CC(=O)N[C@H](C(=O)N[C@@H](C)C(=O)NCC(=O)N[C@@H](C)B(O)O)C1CCCC1")
5.11
>>> reportedvalue("CC(=O)N[C@H](C(=O)N[C@H](C(=O)NCC(=O)NC(C)C(=O)C(=O)NCCC(=O)O)[C@@H](C)O)C1CCCC1 (some centres not stated)")
6.43
>>> reportedvalue("CC(=O)N[C@H](C(=O)N[C@H](C(=O)NCC(=O)N[C@H]1CCOB1O)[C@@H](C)O)C1CCCC1")
5.34

---

# Test system: Plasmodium falciparum
# test: Antimalarial activity against Plasmodium falciparum 3D7 assessed as inhibition of parasite growth incubated for 96 hrs by SYBR Green dye based assay
# Type: functional, organism-based
# experimentalSetup: 3D7, 96 h
pEC50: −log10 of the molar value.
Assign Yes to entries whose pEC50 meets or exceeds 6; assign No to the rest.

>>> assignedcategory("CC(=O)N[C@H](C(=O)N[C@@H](C)C(=O)NCC(=O)N[C@@H](C)B(O)O)C1CCCC1")
"Yes"
>>> assignedcategory("CC(=O)N[C@H](C(=O)N[C@H](C(=O)NCC(=O)N[C@@H](C)B(O)O)[C@@H](C)O)C1CCCC1")
"No"
>>> assignedcategory("CC(=O)N[C@H](C(=O)N[C@H](C(=O)NCC(=O)N[C@@H](C)B(O)O)C(C)C)C1CCCC1")
"Yes"
>>> assignedcategory("CC[C@H](C)[C@H](NC(C)=O)C(=O)N[C@H](C(=O)NCC(=O)N[C@@H](C)B(O)O)[C@@H](C)O")
"No"
>>> assignedcategory("CC(=O)N[C@H](C(=O)N[C@H](C(=O)NCC(=O)N[C@H]1CCOB1O)[C@@H](C)O)C1CCCC1")
"No"
